ASSAY_TARGET: human GIP receptor (hGIPR) (Homo sapiens, UniProt P48546)
Construct: expressed in transfected cells
Sequence (P48546 22-466): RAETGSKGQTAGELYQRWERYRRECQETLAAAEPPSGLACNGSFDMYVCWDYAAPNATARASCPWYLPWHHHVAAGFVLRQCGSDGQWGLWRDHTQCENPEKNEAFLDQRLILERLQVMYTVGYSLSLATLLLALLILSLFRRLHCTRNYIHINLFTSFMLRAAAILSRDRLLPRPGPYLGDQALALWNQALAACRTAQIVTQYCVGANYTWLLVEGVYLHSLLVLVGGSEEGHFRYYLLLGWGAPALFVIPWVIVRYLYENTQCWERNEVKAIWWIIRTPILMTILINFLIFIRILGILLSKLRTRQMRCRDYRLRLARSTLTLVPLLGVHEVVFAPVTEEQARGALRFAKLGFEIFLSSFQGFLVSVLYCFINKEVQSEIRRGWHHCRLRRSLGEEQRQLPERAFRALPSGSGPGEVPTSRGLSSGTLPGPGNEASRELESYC
ASSAY_EXPLANATION: GIP receptor assay, method A (CRE-luciferase reporter, BHK cells)
Type: cell-based
CONDITION_CONTEXT: method A, absence of HSA; read-out: hGIPR Potency, no HSA, EC50
Numbered stars: 1 amine (or outer) side, 2 acyl side, 3 side chain; on linkers, the order of the positions; unused ones are H or OH. Square brackets hold non-standard residues; d marks the D form. Side chains are listed from the residue outwards. * marks the point of attachment. C18 diacid = O=C(O)CCCCCCCCCCCCCCCCC(=O)*; γGlu = O=C(O)[C@H](CCC(=O)[*:2])N[*:1]; AEEA = NCCOCCOCC(=O)O; Aib = CC(C)(N)C(=O)O
Exercise: for every item that follows, state its recorded EC50.
Show the value, then the unit it is measured in.

Provide EC50 value for the following substance: Y[Aib]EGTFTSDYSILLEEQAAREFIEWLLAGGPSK([AEEA-AEEA-γGlu-C18 diacid])GGQAPGQAPGEASHLSTAQTQRLSAELHELATLPRTETGSGSP-NH2 [Compound 38] 1.37 pM

Find the measured EC50 of H[Aib]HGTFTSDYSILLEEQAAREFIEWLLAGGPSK([AEEA-AEEA-γGlu-C18 diacid])GEASQLSTAALGRLSAELHHLATLPRTETGSGSP-NH2 [Compound 66] and report it. 2.39 pM

Give the measured EC50 for H[Aib]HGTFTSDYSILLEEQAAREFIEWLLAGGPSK([AEEA-AEEA-γGlu-C18 diacid])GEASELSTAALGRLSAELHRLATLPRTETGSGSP-NH2 [Compound 25] 4.27 pM

Source listed as patent US20260174875A1.
